Experiment: NCI Yeast Anticancer Drug Screen. Data for the rad50 strain (AID 155)
Conditions: S. cerevisiae rad50 strain growth inhibition; at 50.0 µM; active compounds read high
Compounds without any hit were thinned out: in the full panel of roughly 79,000, 15% have a hit.
Classification field: Satisfied = growth inhibition at or over 90%; Not satisfied = growth inhibition under 90%.

compound	class
CCN1CCC(O)(c2ccc(Cl)c(Cl)c2)C(C(=O)c2ccc(Cl)c(Cl)c2)C1 (centres undefined)	Satisfied
O=Cc1ccc(C(F)(F)F)cc1.[C-]#[O+].[C-]#[O+].[C-]#[O+].[Cr]	Not satisfied
CC1CCC2(OC1)OC1CC3C4CC=C5CC(OC6OC(CO)C(OC7OC(C)C(OC8OC(C)C(O)C(O)C8O)C(O)C7O)C(O)C6OC6OC(C)C(O)C(O)C6O)CCC5(C)C4CCC3(C)C1C2C (centres undefined)	Not satisfied
O=C(N/N=C/c1cc(Cl)cc(Cl)c1[O-])c1ccccc1O.O=C(N/N=C/c1cc(Cl)cc(Cl)c1[O-])c1ccccc1O.[Mn+2]	Not satisfied
O=[N+]([O-])c1ccc(C=Cc2ccccc2)cc1.[C-]#[O+].[C-]#[O+].[C-]#[O+].[Cr]	Not satisfied
c1ccc([CH2][Pb]([c]2ccccc2)([c]2ccccc2)[c]2ccccc2)cc1	Satisfied

Hey, just so you know, these numbers are from PubChem BioAssay (NCI).
